Where do the numbers come from? From ChEMBL document CHEMBL1201862.

Test system: SNB-78
Assay: NCI tumour cell line growth inhibition, 48 h
Activity calls are given as the source filed them. No stated cut-off is given here; in the data, active = GI50 up to about 1.1 µM and inactive = higher.
quantityName: GI50

Consider the molecule O=C(CCc1cc(-c2ccccc2)nc(S)n1)N(Cc1ccccc1)Cc1ccccc1 . State its measured GI50.
> 100 µM (inactive)

Name the recorded GI50 of the item NCCNC(=O)c1cccc2cc3ccccc3nc12 in your answer.
8.63 µM (inactive)

Consider the molecule NC(C(=O)O)c1ccc(C(=O)O)cc1 (stereo not drawn) . State its measured GI50.
> 100 µM (inactive)

Indicate its recorded GI50; the molecule in question is C[C@]12CC[C@H](OC3CCCCO3)CC1=CC[C@@H]1C2CC[C@]2(C)/C(=N/OCCC#N)CCC12 (stereo partly drawn)
21.9 µM (inactive)

Specify measured GI50 for COc1ccc(C2C3C(=O)C=CC(=O)C3[C@@H]2C)cc1OC (stereo partly drawn) .
> 100 µM (inactive)

State, in one line, measured GI50 of N#CC1(c2nc3ccccc3o2)C(=O)C(=O)N(C2C3CC4CC(C3)CC2C4)C(=O)C1=O (stereo not drawn)
> 100 µM (inactive)

Note GI50 for the molecule shown: O=C(/C=C/c1ccccc1O)c1ccc([N+](=O)[O-])cc1
20.9 µM (inactive)

Supply recorded GI50 for CCCOP1(=O)C=C(O)C(Cl)=C(C)C1 (stereo not drawn) here.
> 100 µM (inactive)

Supply GI50 value. Item: COc1cccc(/C=C2\C(=O)N(C(=O)Cc3ccccc3)N=C2C)c1
> 100 µM (inactive)

Give a short answer stating reported GI50 for Cc1ccc(N2Cc3c(ccc4ccccc34)OP2(=O)Oc2ccc(Cl)c(C)c2)cc1 (stereo not drawn) .
> 100 µM (inactive)

Fill in GI50 for record CC(=O)/C=C1\CC(=O)N(C)c2ccccc2N1
> 100 µM (inactive)

Answer with the recorded GI50 for the molecule listed here: O=C1CCC2COc3ccc(O)c1c32 (stereo not drawn)
> 100 µM (inactive)

Find the measured GI50 of O=Cc1ccc(-c2cccs2)s1 and report it.
> 100 µM (inactive)

Return reported GI50. Input molecule: Cc1c(/C=N/N=C/c2[nH]c(C(=O)OC(C)(C)C)c(C)c2C)[nH]c(C(=O)OC(C)(C)C)c1C
> 100 µM (inactive)

Quickly give me recorded GI50 for COc1ccc2c(OC)c3ccoc3nc2c1O
> 100 µM (inactive)

Supply GI50 value. Item: O=[PH](O)c1ccccn1
> 100 µM (inactive)

Input O=C1NC2OCC(O)C(O1)C2O (stereo not drawn) , output reported GI50.
> 100 µM (inactive)

Indicate its recorded GI50; the molecule in question is CCN(CC)c1ccc(/C=C2/C[N+](C)(C)C/C(=C/c3ccc(N(CC)CC)cc3)C2=O)cc1
2.82 µM (inactive)

Please indicate GI50 recorded for CCOC(=O)CC1COc2ccc3c(c21)OCO3 (stereo not drawn)
> 100 µM (inactive)

Complete the entry with GI50 for C=C1COC(/C=C(\C)CC/C=C(\C)CCl)C1 (stereo not drawn)
> 100 µM (inactive)

Provide one value: measured GI50 of O=C1C(=O)N(c2ccc(Cl)cc2)C(=O)/C(=N/c2cccc3c(=O)[nH][nH]c(=O)c23)C1c1nc2ccccc2o1 (stereo not drawn)
> 100 µM (inactive)

Annotate the molecule Cc1c(C(=O)/C=C/c2cccc3ccccc23)[n+]([O-])c2ccccc2[n+]1[O-] with its measured GI50.
6.84 µM (inactive)

Look up and state reported GI50 for C(=C\c1csnn1)/c1cccnc1
> 100 µM (inactive)
